metric.name: melting point (°C)
A number alone suffices; assume °C.

| smi | value.unit | melting point |
| --- | --- | --- |
| CN(C)C(=O)c1cc(N)cc(C(F)(F)F)c1 | °C | 154 |

Lookup: Hello, please tell me recorded melting point for this one: C=C1CSC(=C(C#N)n2ccnc2)S1
Found: 116

Lookup: Identify measured melting point associated with O=C(NCC(F)(F)F)c1ccc(C(F)(F)F)cc1
Found: 117

###

Reported melting point values for the following compounds.

| compound | melting point |
| --- | --- |
| CCn1ncnc1COc1nn2c(-c3ccccc3F)nncc2c1-c1cccs1 | 190 to 192 °C |
| CNc1ccc(Cl)cc1-c1nnc(C(F)(F)F)n1CC(=O)N1CCOCC1 | 152 to 153 °C |
| CCOC(=O)C1=CNc2cccnc2S1 | 194 to 195 °C |
| O=C(c1c(F)cccc1F)N1COCN(c2ccc(SC(F)F)cc2F)C1=O | 77 to 79 °C |
| Cc1cc(C)c2c(c1C)OC1(CCN(C)CC1)C2c1ccc(C(C)C)cc1 (centres undefined) | 63 to 64 °C |
| COc1c(N2CCC(n3ccnn3)C2)c(F)cc2c(=O)c(C(=O)O)cn(C3CC3)c12 (centres undefined) | 200 to 201 °C |

Lookup: Give a short answer stating reported melting point for O=C1CCCC(Sc2ccccc2)=C1C(=O)c1ccc(Cl)c(OCCn2cnnn2)c1Cl .
Found: 64 to 70 °C

Lookup: Specify melting point for CC1(C)Cc2c(c(N3CCCCC3)nc3sc4c(NCCN5CCOCC5)ncnc4c23)CO1 and stop.
Found: 158 °C

Lookup: Give the reported melting point for this compound. Fc1ccc(-c2[nH]cc(C3=CC4CCC(C3)N4)c2-c2ccncc2)cc1 (centres undefined)
Found: 212 to 213 °C

Lookup: Return reported melting point. Input compound: CCCSC1=NSc2ccccc2N1Cc1ccc(-c2ccccc2C(=O)O)cc1
Found: 75 to 85 °C

Lookup: Query melting point for CNC(=O)CN1CCc2cc(Nc3ncc(Cl)c(Nc4ccccc4OC)n3)c(OC)cc2CC1
Found: 81 to 95 °C

Lookup: State its melting point: CSc1ccc(C2OC(=O)NC2CO)cc1 (centres undefined)
Found: 130 to 131 °C

Lookup: Give me measured melting point, please, for this compound: C#CCOc1nnc(Cl)c2ccccc12
Found: 134 to 136 °C

Lookup: Return melting point for the following compound: Nc1c(F)c(N2C[C@@H]3CCCN[C@@H]3C2)c(F)c2c1c(=O)c(C(=O)O)cn2[C@@H]1C[C@@H]1F
Found: 145 to 149 °C

Lookup: Supply melting point value. Item: Cc1ccc(S(=O)(=O)NCc2ccccc2)cc1
Found: 115 to 116 °C

Lookup: # return recorded melting point for input CC(=O)N(C)C(Cc1ccccc1N)c1sccc1C (centres undefined)
Found: 176 to 182 °C

Lookup: # return recorded melting point for input Cc1scc(-c2ccccc2)c1N=C1NCCN1
Found: 140 to 141 °C

Lookup: Could you please provide reported melting point for COc1cc(C)c(S(=O)(=O)c2ccccc2C)cc1OC ? Thanks!
Found: 126 to 128 °C

Lookup: # return recorded melting point for entry CC(C)C1(Cl)Cc2cc(OCC(=O)O)c(Cl)c(Cl)c2C1=O (centres undefined)
Found: 158 to 159 °C

Lookup: Supply melting point value. Item: Cc1cc(SC2=C(O)CC(CCc3ccc(O)cc3)(C3CCCC3)OC2=O)c(C(C)(C)C)cc1CO (centres undefined)
Found: 199 to 201 °C

Lookup: Provide one value: measured melting point of COc1cc(Nc2c(C#N)cnc3cc(-c4ccc(C(N)=O)cc4)sc23)c(Cl)cc1Cl
Found: > 300 °C

Lookup: Look up and state reported melting point for CC(C)(C)OC(=O)N1CCc2c(n(CCO)c3c(Cl)ccc(Cl)c23)CC1
Found: 156 to 158 °C

Lookup: Give recorded melting point. CCOC(=O)N(C(=S)NC(C)C)c1c(C(C)C)cc(Oc2ccccc2)cc1C(C)C
Found: 107 to 108 °C

Lookup: Determine its reported melting point: O=C(c1ccc(OCC2CC2)c2oc3ccccc3c12)[NH+]([O-])c1ccncc1 (centres undefined)
Found: 266 to 268 °C
